ASSAY METHOD TEXT: Cell viability assay of HEK293 cells treated with inhibitors and menadione
Assay type: cell-based, human
CONDITION INFO: human, HEK293 cells, 30 µM compound, w/o Menadione, 20240515 plate 014, DMSO Ko no Mendione = 100
MEASUREMENT LABEL: viability at 30 µM (%)
Form entry: value (%) — number only.

- STRUCTURE AS SMILES: "Nc1nccc(Nc2ccc(NC(=O)c3ccc(Nc4ncnc5ccccc45)cc3)cc2)n1"
  viability at 30 µM [%]: 80.3
- STRUCTURE AS SMILES: "Cc1cc(Nc2ccc(NC(=O)c3ccc(Nc4ncnc5ccccc45)cc3)cc2)nc(N)n1"
  viability at 30 µM [%]: 67.5

Attention now shifts to the item below.
Please look up its viability at 30 µM: "Nc1cc(Nc2ccc(NC(=O)c3ccc(Nc4ccnc5ccccc45)cc3)cc2)ccn1"
89.7
